FYI, the data here is from ChEMBL document CHEMBL3885881.

organism: Rattus norvegicus; experiment: DrugMatrix - Regimen: Daily Repeat; assay type: toxicity, organism-based, Sprague-Dawley; design: regimen Daily Repeat, gender Male, age 6-8 weeks; conditions: in vivo, po, 0 mg/kg, 120 h, tissue Blood, route oral GAVAGE, dose level Control, time 5 day, […]
Measured HEMATOCRIT, listed per entry for reference.
Express it in %; write the number only.

Sample answers from the record:
molecule	output_unit	obs_value
CCOC(=O)C1=C(COCCN)NC(C)=C(C(=O)OC)C1c1ccccc1Cl (centres undefined) [AMLODIPINE]	%	34.78
O=C(O)CCCc1ccc(N(CCCl)CCCl)cc1 [CHLORAMBUCIL]	%	33.22
CC(C)(Oc1ccc(Cl)cc1)C(=O)O [CLOFIBRIC ACID]	%	34.05

Read the entry Cc1ccc(-c2cc(C(F)(F)F)nn2-c2ccc(S(N)(=O)=O)cc2)cc1 [CELECOXIB] and write its reported HEMATOCRIT.
33.22

Read the entry CCC(C)n1ncn(-c2ccc(N3CCN(c4ccc(OCC5COC(Cn6cncn6)(c6ccc(Cl)cc6Cl)O5)cc4)CC3)cc2)c1=O (centres undefined) [ITRACONAZOLE] and write its reported HEMATOCRIT.
33.22

Read the entry C[C@@H]1CN(c2c(F)c(N)c3c(=O)c(C(=O)O)cn(C4CC4)c3c2F)C[C@H](C)N1 [SPARFLOXACIN] and write its reported HEMATOCRIT.
34.78

Read the entry OC(Cn1cncn1)(Cn1cncn1)c1ccc(F)cc1F [FLUCONAZOLE] and write its reported HEMATOCRIT.
33.22

Read the entry O=NN(CCCl)C(=O)NC1CCCCC1 [LOMUSTINE] and write its reported HEMATOCRIT.
34.78

---

species: Rattus norvegicus; assay: DrugMatrix - Regimen: Daily Repeat; assay type: toxicity, organism-based, Sprague-Dawley; design: regimen Daily Repeat, gender Male, age 6-8 weeks; conditions: in vivo, po, 0 mg/kg, 72 h, tissue Plasma, route oral GAVAGE, dose level Control, time 3 day, vehicle .5 % CMC
Measured TOTAL BILIRUBIN, listed per entry for reference.
Express it in mg/dL; write the number only.

Sample answers from the record:
                                   molecule  obs_value
0  Cc1ccc(/N=C/N(C)/C=N/c2ccc(C)cc2C)c(C)c1       0.18
1  CCCCc1oc2ccccc2c1C(=O)c1cc(I)c(OCCN(CC)CC)c(I)c1       0.78
2  CCCN1C[C@H](CSC)C[C@@H]2c3cccc4[nH]cc(c34)C[C@H]21 [PERGOLIDE]       0.22
3         Cc1ccc2cc3c(ccc4ccccc43)c3c2c1CC3       0.52
4  OCCN(CCO)c1nc(N2CCCCC2)c2nc(N(CCO)CCO)nc(N3CCCCC3)c2n1       0.52

Read the entry ClC(Cl)Br and write its reported TOTAL BILIRUBIN.
0.18

Read the entry O=C(CCCN1CC=C(n2c(=O)[nH]c3ccccc32)CC1)c1ccc(F)cc1 and write its reported TOTAL BILIRUBIN.
0.57

Read the entry CC(C)(C)NC(=O)[C@@H]1C[C@@H]2CCCC[C@@H]2CN1C[C@@H](O)[C@H](Cc1ccccc1)NC(=O)[C@H](CC(N)=O)NC(=O)c1ccc2ccccc2n1 and write its reported TOTAL BILIRUBIN.
0.15

---

organism: Rattus norvegicus; experiment: DrugMatrix - Regimen: Daily Repeat; assay type: toxicity, organism-based, Sprague-Dawley; parameters: regimen Daily Repeat, gender Male, age 6-8 weeks; details: in vivo, po, 0 mg/kg, […], tissue Plasma, route oral GAVAGE, dose level Control, time 14 day, vehicle .5 % CMC
value_kind: ALBUMIN (G/DL)
Express it in G/DL; write the number only.

Sample answers from the record:
>>> df
                            molecule_smiles  output_unit  obs_value
0  COc1ccc(C(=O)Nc2c(Cl)c[n+]([O-])cc2Cl)c2ccc(C(F)(F)F)nc12         G/DL       4.13
1                                 ClC(Cl)Br         G/DL       4.48
2                                 ClC(Br)Br         G/DL       4.48

Moving on to another molecule below.
Read the entry CCOP(=S)(OCC)Oc1nc(Cl)c(Cl)cc1Cl and write its reported ALBUMIN.
4.25

---

organism: Rattus norvegicus; experiment: DrugMatrix - Regimen: Daily Repeat; type: toxicity, organism-based, Sprague-Dawley; design: regimen Daily Repeat, gender Male, age 6-8 weeks; details: in vivo, po, 0 mg/kg, 120 h, tissue Blood, route oral GAVAGE, dose level Control, time 5 day, vehicle .5 % CMC
Measured ABSOLUTE MONOCYTE, listed per entry for reference.
Express it in CELLS/uL; write the number only.

Sample answers from the record:
>>> df
                                   compound         value_kind  obs_value
0  CCn1cc(C(=O)O)c(=O)c2cc(F)c(N3CCNCC3)cc21 [NORFLOXACIN]  ABSOLUTE MONOCYTE         32
1   COc1nc(C)nc(Cl)c1N=C1NCCN1 [MOXONIDINE]  ABSOLUTE MONOCYTE     102.83

Moving on to another compound below.
Read the entry ClC(Cl)Br [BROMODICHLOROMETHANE] and write its reported ABSOLUTE MONOCYTE.
204.83

---

Measured HEMATOCRIT, listed per entry for reference.
species: Rattus norvegicus; test: DrugMatrix - Regimen: Daily Repeat; type: toxicity, organism-based, Sprague-Dawley; design: regimen Daily Repeat, gender Male, age 6-8 weeks; conditions: in vivo, po, 0 mg/kg, 120 h, tissue Blood, route oral GAVAGE, dose level Control, time 5 day, vehicle .5 % CMC
Express it in %; write the number only.

Sample answers from the record:
In [3]: df
Out[3]:
                                   molecule  obs_value
0  C1CCC(C(CC2CCCCN2)C2CCCCC2)CC1 (stereo unspecified)      45.12
1       Nc1ccn([C@H]2CC[C@@H](CO)O2)c(=O)n1      43.12
2  CC(C)(C)NC(=O)[C@@H]1C[C@@H]2CCCC[C@@H]2CN1C[C@@H](O)[C@H](Cc1ccccc1)NC(=O)[C@H](CC(N)=O)NC(=O)c1ccc2ccccc2n1      35.77

Read the entry Cc1ccc(/N=C/N(C)/C=N/c2ccc(C)cc2C)c(C)c1 and write its reported HEMATOCRIT.
35.28

Read the entry OCCN(CCO)c1nc(N2CCCCC2)c2nc(N(CCO)CCO)nc(N3CCCCC3)c2n1 and write its reported HEMATOCRIT.
37.08

Read the entry CN1CCN(CCCN2c3ccccc3Sc3ccc(Cl)cc32)CC1 and write its reported HEMATOCRIT.
35.63

---

species on record: Rattus norvegicus; assay: DrugMatrix - Regimen: Daily Repeat; type: toxicity, organism-based, Sprague-Dawley; design: regimen Daily Repeat, gender Male, age 6-8 weeks; settings: in vivo, po, 0 mg/kg, 72 h, tissue Plasma, route oral GAVAGE, dose level Control, time 3 day, […]
value_kind: ALANINE AMINOTRANSFERASE (u/L)
Express it in u/L; write the number only.

Sample answers from the record:
molecule_smiles	ALANINE AMINOTRANSFERASE, u/L
O=C(O)CCCc1ccc(N(CCCl)CCCl)cc1	76.83
CN(C)c1nc(N(C)C)nc(N(C)C)n1	66.5
OC(Cn1cncn1)(Cn1cncn1)c1ccc(F)cc1F	76.83
C[C@H]1O[C@@H](O[C@H]2[C@@H](O)C[C@H](O[C@H]3[C@@H](O)C[C@H](O[C@H]4CC[C@@]5(C)[C@H](CC[C@@H]6[C@@H]5C[C@@H](O)[C@]5(C)[C@@H](C7=CC(=O)OC7)CC[C@]65O)C4)O[C@@H]3C)O[C@@H]2C)C[C@H](O)[C@@H]1O	77.67
C[C@@H]1CN(c2c(F)c(N)c3c(=O)c(C(=O)O)cn(C4CC4)c3c2F)C[C@H](C)N1	66.5

Moving on to another compound below.
Read the entry O=c1oc2ccccc2c(O)c1Cc1c(O)c2ccccc2oc1=O and write its reported ALANINE AMINOTRANSFERASE.
77

---

organism: Rattus norvegicus; assay: DrugMatrix - Regimen: Daily Repeat; type: toxicity, organism-based, Sprague-Dawley; set-up: regimen Daily Repeat, gender Male, age 6-8 weeks; conditions: in vivo, po, 0 mg/kg, 120 h, tissue Blood, route oral GAVAGE, dose level Control, time 5 day, vehicle .5 % CMC
value_kind: BASOPHIL (%)
Express it in %; write the number only.

>>> print(df.to_string())
                                   compound  output_unit  obs_value
0  CC(C)(C)NC(=O)[C@@H]1C[C@@H]2CCCC[C@@H]2CN1C[C@@H](O)[C@H](Cc1ccccc1)NC(=O)[C@H](CC(N)=O)NC(=O)c1ccc2ccccc2n1            %          0

Read the entry C1CCC(C(CC2CCCCN2)C2CCCCC2)CC1 (configuration not stated) and write its reported BASOPHIL.
0.26

Read the entry Nc1ccn([C@H]2CC[C@@H](CO)O2)c(=O)n1 and write its reported BASOPHIL.
0.17

Read the entry CCCN1C[C@H](CSC)C[C@@H]2c3cccc4[nH]cc(c34)C[C@H]21 [PERGOLIDE] and write its reported BASOPHIL.
0

Read the entry CCn1cc(C(=O)O)c(=O)c2cc(F)c(N3CCNCC3)cc21 and write its reported BASOPHIL.
0

Read the entry CC1CC(OC(=O)C(O)c2ccccc2)CC(C)(C)C1 (configuration not stated) [CYCLANDELATE] and write its reported BASOPHIL.
0

Read the entry COc1nc(C)nc(Cl)c1N=C1NCCN1 and write its reported BASOPHIL.
0
